experiment: clinical; conditions: human, in vivo, 200 mg/kg
Square brackets hold non-standard residues; d marks the D form. Peptide text beside a SMILES is read from it. αMeP = C[C@@]1(C(=O)O)CCCN1
Value kind: AUC(0-t)

Which AUC(0-t) value is on record for C[C@@]1(C(=O)N[C@@H](CCC(=O)O)C(=O)O)CCCN1C(=O)CN [trofinetide] (H-Gly-[αMeP]-Glu-OH) ?
≥ 790 µg·h/mL

###

assay: Population pharmacokinetic model from 9 clinical studies; assay type: in vivo, human; details: both sexes, human, plasma; final population PK model, population mean; read-out: CL: Central Clearance (converted)
Square brackets hold non-standard residues; d marks the D form. Peptide text beside a SMILES is read from it. αMeP = C[C@@]1(C(=O)O)CCCN1
Value kind: clearance (mL/min)
Kindly provide the numeric value in mL/min only, without the unit symbol.

Which clearance value is on record for C[C@@]1(C(=O)N[C@@H](CCC(=O)O)C(=O)O)CCCN1C(=O)CN [trofinetide] (H-Gly-[αMeP]-Glu-OH) ?
192
